Assay: ATG_GLI_CIS: Attagene CIS-FACTORIAL HepG2 Assay for human Zinc Finger Protein GLI1 (AID 2282945)
Conditions: HepG2, Attagene cis-factorial reporter mRNA, GLI element; actives raise or lower the signal
Procedure: ATG_CIS is a cell-based, multiplexed-readout assay that uses HepG2, a human liver cell line, with measurements taken at 24 hours after chemical dosing in a 24-well plate.ATG_GLI_CIS is one of 52 assay component(s) measured or calculated from the ATG_CIS assay. […] This assay endpoint, ATG_GLI_CIS, was analyzed with bidirectional fitting relative to DMSO as the negative control and baseline of activity. […]
Active and inactive are the calls of the source. How the source made its calls: active means hit-call score of the fitted dose curve at least 0.9, where 1 is the maximum; inactive means score below 0.9.
The reply should be one of these categories: active, inactive

COMPOUND	CLASS ASSIGNMENT
C1=CC2C3C=CC(C3)C2C1 (stereo not given)	inactive
CCCCCCCCCCCC(=O)OC[C@@H](O)[C@H]1OC[C@H](O)[C@H]1O	inactive

// query Answer briefly: the call reported for CCCCN(CCCC)C(=O)N(CCCC)CCCC in this assay.
// result active

// query Could you do the same for CCN(CC)C(=O)N(CC)CC , please?
// result inactive

// query Can you handle CC1=NN(c2ccc(S(=O)(=O)O)cc2)C(=O)C1 next?
// result inactive

// query Try the compound C=C(C)CNCC
// result inactive

// query Ok, now CCCCC(CC)C(=O)OC(C)C (stereo not given)
// result inactive

// query Now the same for CCCCCCCC/C=C\CCCCCCCC(=O)OCC
// result inactive

// query Would you mind doing O=CN1CCOCC1 as well?
// result inactive

// query Likewise for O=C(O)CNc1ccccc1 ?
// result inactive

###

Test: ATG_Oct_MLP_CIS: Attagene CIS-FACTORIAL HepG2 Assay for human Octamer-Binding Transcription Factor (Oct) (AID 2282993)
Settings: HepG2 Attagene cis-factorial Oct reporter, mRNA; actives raise or lower the signal
Active and inactive are the calls of the source. The calls were made as follows: active = hit-call score of the fitted dose curve at least 0.9, where 1 is the maximum; inactive = score below 0.9.
Mark one answer only. Choices: 1.0 for active, 0.0 for inactive

// query // outcome(item) with item = CC(C=O)Cc1ccc(C(C)(C)C)cc1 (stereo not given)
// result 0.0

// query Would you kindly repeat that for CCCCCCCC(=O)OCCCCCC ?
// result 0.0

// query Let us now turn to CCCC(=O)OC(C)(C)Cc1ccccc1
// result 0.0

// query Now this one: C=C(C)C(=O)OCCOCCOCCOC(=O)C(=C)C
// result 0.0

// query Same read-out for Nc1ccccc1[N+](=O)[O-] ?
// result 0.0

// query How about C=CCOC(=O)CCCCCC ?
// result 0.0

###

Read-out: Actin alpha 1 (ACTA1), ACTA1 (gene 58)
Experiment: BSK_MyoF_ACTA1: BioMAP Diversity Plus: MyoF Assay for Actin alpha 1 (ACTA1) Biomarker Activity (AID 2284244)
Conditions: primary human lung fibroblasts
Active and inactive are the calls of the source. The calls were made as follows: active = hit-call score of the fitted dose curve at least 0.9, where 1 is the maximum; inactive = score below 0.9.
Allowed answers: class 1 (active), class 0 (inactive)

See these solved cases before continuing.
COMPOUND	CLASS ASSIGNMENT
C=C(C)C(=O)OCCOCCOCCOC(=O)C(=C)C	class 0
C1=CC2C3C=CC(C3)C2C1 (stereo not drawn)	class 0

Could you now look at the following compound, please?
// query # fetch the recorded call for Oc1c(Cl)cc(Cl)c(Cl)c1Cc1c(O)c(Cl)cc(Cl)c1Cl here
// result class 1
